Reference for the values: the supplement of paper PMC9262897

- Test system: E. coli TESEC Mtb Alr
- experiment.description: growth (OD600 after 10 h); higher = more growth (less inhibition)
- cond: arabinose 100000 nM; compound 0.1 mM; raw OD600 reference: median of DMSO wells 0.201, cell-free background 0.041
Where a name gives a salt, the structure may show the parent alone.
parameter.measured: growth
Reply: number alone, nothing else.

Reported growth ( CC(C)NC[C@H](O)COc1ccc(CC(N)=O)cc1 [(S)-(-)-Atenolol] ) = 0.214

Per the records, this molecule ( C=Cc1c(C)c2cc3nc(cc4[nH]c(cc5nc(cc1[nH]2)C(C)=C5CCC(=O)O)c(CCC(=O)OC)c4C)[C@@]1(C)C3=CC=C(C(=O)OC)C1C(=O)OC.C=Cc1c(C)c2cc3nc(cc4[nH]c(cc5nc(cc1[nH]2)C(C)=C5CCC(=O)OC)c(CCC(=O)O)c4C)[C@@]1(C)C3=CC=C(C(=O)OC)C1C(=O)OC (stereo partly specified) ) has growth equal to 0.443

Recorded growth (molecule CC(C)(Oc1ccc(Cl)cc1)C(=O)O ): 0.201

growth recorded for this molecule, CCC(=O)O[C@@H](O[P@](=O)(CCCCc1ccccc1)CC(=O)N1C[C@H](C2CCCCC2)C[C@H]1C(=O)O)C(C)C , is 0.281

In plain terms, CN[C@@H]1[C@H](O)[C@H](NC)[C@H]2O[C@@]3(O)C(=O)C[C@@H](C)O[C@H]3O[C@@H]2[C@H]1O [Spectinomycin dihydrochloride] has a documented growth of 0.075

Value of growth reported for the molecule Nc1c2c(nc3ccccc13)CCCC2O (racemic) [Hydroxytacrine maleate (R,S)] is 0.202

Record Cc1cccc(N(C)C(=S)Oc2ccc3ccccc3c2)c1 [Tolnaftate] . Reported growth: 0.165

GET /value?item= C[C@H]1NC(=O)NC1=O &field=growth returns 0.2

growth reported for this molecule CN1[C@@H]2CC[C@H]1C[C@@H](OC(c1ccccc1)c1ccccc1)C2 [Benztropine mesylate] : 0.165

Lab note: measured growth of Cc1nc(=O)c2cc(CN(C)c3ccc(C(=O)N[C@@H](CCC(=O)O)C(=O)O)s3)ccc2[nH]1 was 0.171

Just so you know, measured growth for CCCCOC(=O)c1ccc(N)cc1 came out at 0.186

Reported growth ( CCCCc1nc(Cl)c(CO)n1Cc1ccc(-c2ccccc2-c2nnn[nH]2)cc1 ) = 0.209

The molecule identified as C[C@]1(Cn2ccnn2)[C@H](C(=O)O)N2C(=O)C[C@H]2S1(=O)=O registered its growth at 0.045

The reported value for CCC1NC(=O)c2cc(S(N)(=O)=O)c(Cl)cc2N1 (stereo unspecified) in terms of growth is 0.219

The reported value for O=C(O)CNC(=O)C(CS)Cc1ccccc1 (stereo unspecified) in terms of growth is 0.252

So, Nc1ncn(C2OC(CO)C(O)C2O)c(=O)n1 (stereo unspecified) ? Its growth was 0.113

###

- Tested on: E. coli TESEC Mtb Alr
- experiment.description: growth (OD600 after 10 h); higher = more growth (less inhibition)
- cond: arabinose 100000 nM; compound 0.1 mM; raw OD600 reference: median of DMSO wells 0.201, cell-free background 0.041
Structures can show the parent of a compound that is named as a salt.
Task for the reader: assign each of the following compounds its reported growth.
Please respond with just the number, no unit label.

growth for E. coli TESEC Mtb Alr with input O=C(O)c1ccccc1OP(=O)(O)O [Fosfosal] equals 0.192

The reported growth value, E. coli TESEC Mtb Alr, for CC1(C)O[C@@H]2[C@@H](CO[C@@]3(COS(N)(=O)=O)OC(C)(C)O[C@@H]23)O1 [Topiramate] reads 0.18

# Nc1nc(/C(=C/CC(=O)O)C(=O)N[C@@H]2C(=O)N3C(C(=O)O)=CCS[C@H]23)cs1 [Ceftibuten] with E. coli TESEC Mtb Alr: growth is 0.141

Value (growth, E. coli TESEC Mtb Alr) for record CC1=C(/C=C/C(C)=C/C=C/C(C)=C\C(=O)O)C(C)(C)CCC1 [Isotretinoin] = 0.218

Value sought: growth, system E. coli TESEC Mtb Alr, item N[C@H]1CONC1=O [(S)-(-)-Cycloserine] . Result: 0.217

Bench note, E. coli TESEC Mtb Alr: CC(COc1ccccc1)N(CCCl)Cc1ccccc1 (stereo not drawn) [Phenoxybenzamine hydrochloride] , growth reads 0.121

Reported E. coli TESEC Mtb Alr growth for item CCCC(C(=O)OCCN(CC)CC)(c1ccccc1)c1ccccc1 [Proadifen hydrochloride] was 0.0496

// returns growth for C[C@]12CC[C@H]3[C@@H](CCC4=CC(=O)CC[C@@]43C)[C@@H]1CC[C@@H]2C(=O)CO [Deoxycorticosterone] with E. coli TESEC Mtb Alr; value = 0.122

###

- System: E. coli TESEC Mtb DapB
- experiment.description: growth (OD600 after 10 h); higher = more growth (less inhibition)
- cond: arabinose induction (level): High; compound 0.1 mM; raw OD600 reference: median of DMSO wells […], cell-free background 0.041
Structures can show the parent of a compound that is named as a salt.
parameter.measured: growth
Hey, just send me the number, nothing else.

Lab note: measured growth of COC1=CC(=O)C[C@@H](C)[C@]12Oc1c(Cl)c(OC)cc(OC)c1C2=O was 0.174

// O=C1[C@H]2CCCC[C@H]2C(=O)N1CCCCN1CCN(c2nsc3ccccc23)CC1 : growth value = 0.174

The compound identified as O=C(O)CCc1nc(-c2ccccc2)c(-c2ccccc2)o1 registered its growth at 0.139

The compound CN(C)CCOC(=O)COc1ccc(Cl)cc1 [Meclofenoxate hydrochloride] showed growth equal to 0.199

growth in this record for CCN1CCC[C@H]1CNC(=O)c1c(O)c(Cl)cc(Cl)c1OC [Raclopride] : 0.173

###

- Test system: E. coli TESEC Mtb Alr
- experiment.description: growth (OD600 after 10 h); higher = more growth (less inhibition)
- cond: arabinose 10000000 nM; compound 0.1 mM; raw OD600 reference: median of DMSO wells 0.146, cell-free background 0.041
Where a name gives a salt, the structure may show the parent alone.
Assignment: determine reported growth for the given compounds.
Enter the number alone.

// growth lookup, compound = CC(C)(C)C(=O)OCOC(=O)[C@@H]1N2C(=O)[C@@H](NC(=O)[C@H](N)c3ccccc3)[C@H]2SC1(C)C , result: 0.203

Documented growth of COc1ccc(C(Cl)=C(c2ccc(OC)cc2)c2ccc(OC)cc2)cc1 : 0.168

The reported value for CCc1nn(CCCN2CCN(c3cccc(Cl)c3)CC2)c(=O)n1CCOc1ccccc1 [Nefazodone HCl] in terms of growth is 0.0473

Note to self: growth recorded for CNCCC=C1c2ccccc2CCc2ccccc21 [Nortriptyline hydrochloride] was 0.0845

Value of growth reported for the compound C#C[C@]1(O)CC[C@H]2[C@@H]3CCc4cc(O)ccc4[C@H]3CC[C@@]21C is 0.0559

Reported growth for CCN(CC)CCNC(=O)c1cc(Cl)c(N)cc1OC [Metoclopramide monohydrochloride] was 0.144

Reported growth of Nc1ccc(/N=N/c2ccccc2)c(N)n1 [Phenazopyridine hydrochloride] : 0.16

According to the records, this compound CCn1nc(C(=O)O)c(=O)c2cc3c(cc21)OCO3 displays growth of 0.139

###

- System: E. coli TESEC Alr+ wild-type control
- experiment.description: growth (OD600 after 10 h); higher = more growth (less inhibition)
- cond: compound 0.1 mM; raw OD600 reference: median of DMSO wells 0.241, cell-free background 0.041
Structures can show the parent of a compound that is named as a salt.
Is growth at least 0.2? Then condition met. If not, condition not met.

Request: Reported growth reaches at least 0.2 for C#CCN[C@@H]1CCc2ccccc21 [Rasagiline] ?
Response: condition met

Request: Assess whether reported growth for CC(C)NC(=N)NC(=N)Nc1ccc(Cl)cc1 [Proguanil hydrochloride] sits at 0.2 or higher.
Response: condition met

Request: Hi, just wondering whether CC(C)(C)NCC(O)c1cc(O)cc(O)c1 (stereo unspecified) [Terbutaline hemisulfate] shows growth of 0.2 or higher.
Response: condition met

Request: Is the recorded value of growth equal to or greater than 0.2 for this compound? CCC(=O)OCC(=O)[C@@]1(OC(=O)CC)[C@@H](C)C[C@H]2[C@@H]3CCC4=CC(=O)C=C[C@]4(C)[C@@]3(Cl)[C@@H](O)C[C@@]21C [Beclomethasone dipropionate]
Response: condition met

Request: Could you please find out whether CC[N+](C)(CC)CCC[n+]1c(-c2ccccc2)c2cc(N)ccc2c2ccc(N)cc21 [Propidium iodide] has growth that meets 0.2 or exceeds it?
Response: condition not met

Request: Record CN(C)CCCN1c2ccccc2Sc2ccccc21 [Promazine hydrochloride] ; criterion: growth no lower than 0.2. Met?
Response: condition not met

Request: Please check the record COc1c(O[C@@H]2O[C@H](CO)[C@@H](O)[C@H](O)[C@H]2O)cc2c(c1OC)-c1ccc(SC)c(=O)cc1[C@@H](NC(C)=O)CC2 [Thiocolchicoside] and state if its growth is at or above 0.2.
Response: condition met

Request: # bool: growth of CO/N=C(\C(=O)N[C@@H]1C(=O)N2C(C(=O)O)=C(C[N+]3(C)CCCC3)CS[C@H]12)c1csc(N)n1 [Cefepime hydrochloride] >= 0.2
Response: condition not met

Request: Identify whether the reported growth of the following compound is 0.2 or greater: CN(C)CCCOc1nn(Cc2ccccc2)c2ccccc12 [Benzydamine hydrochloride]
Response: condition not met

Request: I'd appreciate it if you could say whether Cc1scc2c1N(C(=O)CN1CCN(C)CC1)c1ccccc1NC2=O [Telenzepine dihydrochloride] has growth at least equal to 0.2.
Response: condition met

Request: Decide: is the reported value of growth for C[C@H]1[C@H](NC(=O)/C(=N\OC(C)(C)C(=O)O)c2csc(N)n2)C(=O)N1S(=O)(=O)O [Aztreonam] equal to or greater than 0.2?
Response: condition not met

Request: Is the recorded value of growth equal to or greater than 0.2 for this compound? Cc1c(N)c(=O)n(-c2ccccc2)n1C [Ampyrone]
Response: condition met

Request: Is growth at least 0.2? Consider C#C[C@]1(OC(C)=O)CC[C@H]2[C@@H]3CCC4=C[C@@H](OC(C)=O)CC[C@@H]4[C@H]3CC[C@@]21C [Ethynodiol diacetate]
Response: condition not met

Request: Tell me whether growth is at least 0.2 here: CCCCC(CC)CN1CN(CC(CC)CCCC)CC(C)(N)C1 (stereo unspecified) [Hexetidine]
Response: condition met

Request: Is the recorded value of growth equal to or greater than 0.2 for this compound? Cn1cnc2c1c(=O)[nH]c(=O)n2C [Theobromine]
Response: condition met

Request: Decide: growth of O=C(N[C@H](CO)[C@H](O)c1ccc([N+](=O)[O-])cc1)C(Cl)Cl [Chloramphenicol] >= 0.2?
Response: condition not met

Request: API: above_or_equal(metric=growth, cutoff=0.2) for item COc1ccc(NS(=O)(=O)c2ccc(N)cc2)nn1 [Sulfamethoxypyridazine]
Response: condition met

Request: Please check the record COc1ccc2cc([C@@H](C)C(=O)O)ccc2c1 [(R) -Naproxen sodium salt] and state if its growth is at or above 0.2.
Response: condition met

Request: Evaluate CCN(CC)C(=O)Nc1ccc(OCC(O)CNC(C)(C)C)c(C(C)=O)c1 (stereo unspecified) [Celiprolol HCl] : growth at minimum 0.2?
Response: condition met

Request: // inclusive: growth at least 0.2? input: O=C1c2cccc(O)c2C(=O)c2c(O)cccc21 [1,8-Dihydroxyanthraquinone]
Response: condition not met

Request: Does growth meet or surpass 0.2 for O=c1[nH]c(=O)n([C@H]2C[C@H](O)[C@@H](CO)O2)cc1C(F)(F)F [Trifluridine] ?
Response: condition not met

Request: Hi team, for O=C(CCCCC(=O)Nc1c(I)cc(I)c(C(=O)O)c1I)Nc1c(I)cc(I)c(C(=O)O)c1I [Iodipamide] , is the recorded growth at or above 0.2?
Response: condition met

Request: Kindly determine if growth recorded for NCCC[C@H](N)CC(=O)N[C@H]1CNC(=O)[C@H]([C@H]2C[C@H](O)NC(N)=N2)NC(=O)/C(=C/NC(N)=O)NC(=O)[C@H](CO)NC(=O)[C@H](CO)NC1=O [Viomycin sulfate] is above or exactly 0.2.
Response: condition not met

Request: Kindly determine if growth recorded for COc1ccc(C(=O)c2ccccc2O)c(O)c1 [Dioxybenzone] is above or exactly 0.2.
Response: condition not met

Request: Given COc1cc(NS(=O)(=O)c2ccc(N)cc2)ncn1 [Sulfamonomethoxine] , state whether its growth is at least 0.2.
Response: condition met

Request: Decide: growth of CCN(CC)CCCC(C)Nc1c2ccc(Cl)cc2nc2ccc(OC)cc12 (stereo unspecified) [Quinacrine dihydrochloride hydrate] >= 0.2?
Response: condition not met

Request: Decide: growth of NS(=O)(=O)c1cc2c(cc1C(F)(F)F)NCNS2(=O)=O [Hydroflumethiazide] >= 0.2?
Response: condition met

Request: Could you tell me if the measured growth of O=C(O)c1ccccc1Nc1cccc(C(F)(F)F)c1 [Flufenamic acid] reaches 0.2 or more?
Response: condition not met

Request: Given CCCCC(=O)N(Cc1ccc(-c2ccccc2-c2nnn[nH]2)cc1)[C@H](C(=O)O)C(C)C [Valsartan] , state whether its growth is at least 0.2.
Response: condition met

Request: Identify whether the reported growth of the following compound is 0.2 or greater: CN[C@@H]1[C@H](O[C@H]2[C@H](O[C@H]3[C@H](O)[C@@H](O)[C@H](N=C(N)N)[C@@H](O)[C@@H]3N=C(N)N)O[C@@H](C)[C@]2(O)C=O)O[C@@H](CO)[C@H](O)[C@H]1O [Streptomycin sulfate]
Response: condition not met
